molecular target: CT-L (Homo sapiens, UniProt P28074); construct: endogenous in cells; assay: Inhibition of CT-L in cell culture; format: cell-based; settings: listed as YG1-066, read-out: IC50 (μM)* In Cell culture against CT-L
Sequence (P28074 60-263): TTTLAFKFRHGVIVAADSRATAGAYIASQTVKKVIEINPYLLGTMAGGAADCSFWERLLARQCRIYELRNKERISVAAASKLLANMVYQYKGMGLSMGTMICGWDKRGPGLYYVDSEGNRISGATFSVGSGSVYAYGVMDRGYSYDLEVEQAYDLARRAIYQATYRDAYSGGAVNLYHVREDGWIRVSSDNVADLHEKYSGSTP
MEASURED_PARAMETER: IC50 (µM)

- SMILES_RECORD: "O=C(O)CSc1cc(NS(=O)(=O)c2cccs2)c2ccccc2c1O"
  OBS_VALUE: 7.3

----------
target: chymotrypsin-like activity of the purified rabbit 20S proteasome (Oryctolagus cuniculus); assay: 20S proteasome inhibition assay, fluorogenic substrate Suc-Leu-Leu-Val-Tyr-AMC; type: biochemical; conditions: individual determinations (runs M-1096, M-1098, M-1099, AK or dated); read-out: Chymotrypsin-like Activity IC50
MEASURED_PARAMETER: IC50

- SMILES_RECORD: "CC(C)(C)OC(=O)COc1cc(NS(=O)(=O)c2cccs2)c2ccccc2c1O"
  SYSTEM_UNDER_TEST: "chymotrypsin-like activity of the purified rabbit 20S proteasome (Oryctolagus cuniculus)"
  OBS_VALUE: "> 10 µM"
- SMILES_RECORD: "CN(C)C1=C/C(=N\\S(=O)(=O)c2cccs2)c2ccccc2C1=O"
  SYSTEM_UNDER_TEST: "chymotrypsin-like activity of the purified rabbit 20S proteasome (Oryctolagus cuniculus)"
  OBS_VALUE: "> 10 µM"
- SMILES_RECORD: "CC(C)(C)OC(=O)COC1=C/C(=N\\S(=O)(=O)c2cccs2)c2ccccc2C1=O"
  SYSTEM_UNDER_TEST: "chymotrypsin-like activity of the purified rabbit 20S proteasome (Oryctolagus cuniculus)"
  OBS_VALUE: "> 10 µM"
- SMILES_RECORD: "O=C(O)COc1cc(NS(=O)(=O)c2cccs2)c2ccccc2c1O"
  SYSTEM_UNDER_TEST: "chymotrypsin-like activity of the purified rabbit 20S proteasome (Oryctolagus cuniculus)"
  OBS_VALUE: "> 10 µM"

----------
target: chymotrypsin-like activity of the purified rabbit 20S proteasome (Oryctolagus cuniculus, UniProt G1T4Q9); experiment: 20S proteasome inhibition assay, fluorogenic substrate Suc-Leu-Leu-Val-Tyr-AMC; type: biochemical; conditions: mean of the individual determinations; read-out: Chymotrypsin-like Activity IC50 (μM), mean ± spread (n);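 further: enzyme and 20 µM substrate incubated 1 h at 37 °C in Tris-HCl buffer pH 7.6, fluorogenic read-out, inhibition calculated against vehicle control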
Sequence (G1T4Q9 1-263): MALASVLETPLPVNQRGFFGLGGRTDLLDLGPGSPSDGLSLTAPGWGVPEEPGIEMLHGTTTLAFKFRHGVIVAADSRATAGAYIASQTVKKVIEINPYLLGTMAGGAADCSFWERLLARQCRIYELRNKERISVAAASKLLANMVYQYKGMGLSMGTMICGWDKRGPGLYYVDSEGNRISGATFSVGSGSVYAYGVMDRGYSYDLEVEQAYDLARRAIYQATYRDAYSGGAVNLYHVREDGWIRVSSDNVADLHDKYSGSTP
Mark Yes only for IC50 values smaller than 3 µM; exact matches and larger values are No.

- MOLECULE: "CCOC(=O)CSC1=C/C(=N\\S(=O)(=O)c2cccs2)c2ccccc2C1=O"
  CATEGORY: "Yes"
- MOLECULE: "O=C1C(Cl)=C(Nc2ccc(S(=O)(=O)Nc3ccccn3)cc2)C(=O)c2ccccc21 [PI-083, reference compound]"
  CATEGORY: "Yes"
- MOLECULE: "CCOC(=O)CSC1=C/C(=N\\S(=O)(=O)c2ccc(C)cc2)c2ccccc2C1=O"
  CATEGORY: "No"
- MOLECULE: "O=C(O)CSC1=CC(=NS(=O)(=O)c2cccs2)c2ccccc2C1=O (stereo in doubt)"
  CATEGORY: "Yes"
- MOLECULE: "COC(=O)CCSC1=C/C(=N\\S(=O)(=O)c2cccs2)c2ccccc2C1=O"
  CATEGORY: "No"
- MOLECULE: "O=C(O)c1ccccc1Sc1cc(NS(=O)(=O)c2cccs2)c2ccccc2c1O"
  CATEGORY: "No"
- MOLECULE: "O=C(O)CSc1cc(NS(=O)(=O)c2ccc(Cl)s2)c2ccccc2c1O"
  CATEGORY: "Yes"
- MOLECULE: "O=C(CCSC1=C/C(=N\\S(=O)(=O)c2cccs2)c2ccccc2C1=O)NC1CC1"
  CATEGORY: "No"
- MOLECULE: "CCOC(=O)CSC1=C/C(=N\\S(=O)(=O)c2ccccc2)c2ccccc2C1=O"
  CATEGORY: "Yes"
- MOLECULE: "CN(C)C(=O)CCSC1=C/C(=N\\S(=O)(=O)c2cccs2)c2ccccc2C1=O"
  CATEGORY: "No"
- MOLECULE: "O=C(CCSc1cc(NS(=O)(=O)c2cccs2)c2ccccc2c1O)NC1CC1"
  CATEGORY: "No"
- MOLECULE: "O=C1C(Sc2ncn[nH]2)=C/C(=N\\S(=O)(=O)c2cccs2)c2ccccc21"
  CATEGORY: "Yes"
- MOLECULE: "O=S(=O)(Nc1cc(Sc2ncn[nH]2)c(O)c2ccccc12)c1cccs1"
  CATEGORY: "No"
- MOLECULE: "O=C(O)CSc1cc(NS(=O)(=O)c2cccs2)c2ccccc2c1O"
  CATEGORY: "Yes"
- MOLECULE: "CCOC(=O)CSC1=C/C(=N\\S(=O)(=O)Cc2ccc(Cl)cc2)c2ccccc2C1=O"
  CATEGORY: "No"
